target: full-length beta-Catenin (Uniprot ID P35222) (Homo sapiens (Human)) (UniProt P35222); test: fluorescence polarization competition; peptide titrated against 10 nM full-length beta-catenin + 10 nM 5FAM-TCF4(10-53)
Starred links: 1 amine or outer side, 2 acyl side, 3 side chain; linkers in the order of their positions; H or OH if unused. Positions of bridges follow the written chain, without caps; N, C: chain ends. Non-standard residues stand in square brackets, D forms with d. Primed or numbered codes have the meaning given here. *: point of attachment. PyrS2″ = (S)-3-amino-1-((pent-4-en-1-yloxy)carbonyl)pyrrolidine-3-carboxylic acid (stapling residue), C=CCCCOC(=O)N1CC[C@@](N[*:1])(C(=O)[*:2])C1; PyrS2 = (S)-3-amino-1-((pent-4-en-1-yloxy)carbonyl)pyrrolidine-3-carboxylic acid, C=CCCCOC(=O)N1CC[C@@](N[*:1])(C(=O)[*:2])C1; B5(25) = 2-amino-2-(pent-4-en-1-yl)hept-6-enoic acid (stitching residue), C=CCCCC(CCCC=C)(N[*:1])C(=O)[*:2]; MorphAsn = (S)-2-amino-4-morpholino-4-oxobutanoic acid, O=C(C[C@H](N[*:1])C(=O)[*:2])N1CCOCC1; B5(3) = 2,2-bis(4-pentenyl)glycine (stitching residue), C=CCCCC(CCCC=C)(N[*:1])C(=O)[*:2]; Phe(3-COOH) = N[C@@H](Cc1cccc(C(=O)O)c1)C(=O)O; Phe(3-Cl) = N[C@@H](Cc1cccc(Cl)c1)C(=O)O; Bta = N[C@@H](Cc1csc2ccccc12)C(=O)O; αAllylPro = C=CC[C@@]1(C(=O)O)CCCN1; tBuAla = CC(C)(C)C[C@H](N)C(=O)O; 3Thi = N[C@@H](Cc1ccsc1)C(=O)O; Cha = N[C@@H](CC1CCCCC1)C(=O)O; Ms = CS(=O)(=O)*
measurementKind: pIC50
// returns pIC50 (minus log10 of molar concentration), number only

Enquiry: State its pIC50: Ac-[αAllylPro]D[tBuAla][B5(3)]DEAAFL[PyrS2″]F[Bta]Q-NH2 (staple 1-4, 4-11; also: staple stereoisomer: later eluting HPLC peak) [I-1074]
Return: 6.30

Enquiry: For the binder Ac-[αAllylPro]D[tBuAla][B5(3)]D[Phe(3-COOH)]AAFL[PyrS2″][3Thi][Phe(3-Cl)]Q-NH2 (staple 1-4, 4-11) [I-2224] , give its measured pIC50 value.
Return: 7.85

Enquiry: Give me measured pIC50, please, for this binder: Ac-[αAllylPro]N[Cha][B5(25)]DQK(Ms)AFL[PyrS2]F[Bta][MorphAsn]-NH2 (staple 1-4, 4-11) [I-2524]
Return: 6.22

Origin of the recorded values: patent US20240116985A1
